Values compiled from PubChem BioAssay AID2060332.

System: LG0567-F671-PDC multi-cell spheroid viability
Experiment: Anticancer human tumor LG0567-F671-PDC patient-derived lung adenocarcinoma cell line growth inhibition [IpAb]
Details: curve of first compound; second compound 3.16 µM
Catalogue of molecules with associated IC50

# annotated cases, reported IC50 shown
[
  {
    "molecule": "CC(=O)c1c(C)c2cnc(Nc3ccc(N4CCNCC4)cn3)nc2n(C2CCCC2)c1=O + CC(C)NCC(C(=O)N1CCN(c2ncnc3c2C(C)CC3O)CC1)c1ccc(Cl)cc1",
    "IC50": "> 300 nM"
  },
  {
    "molecule": "CCCS(=O)(=O)Nc1ccc(F)c(C(=O)c2c[nH]c3ncc(-c4ccc(Cl)cc4)cc23)c1F + CC(C)NCC(C(=O)N1CCN(c2ncnc3c2C(C)CC3O)CC1)c1ccc(Cl)cc1",
    "IC50": "> 10000 nM"
  }
]

Now let's try a different one.
Value wanted: IC50 (LG0567-F671-PDC multi-cell spheroid viability) of entry Cn1cnc2c(F)c(Nc3ccc(Br)cc3Cl)c(C(=O)NOCCO)cc21 + CC(C)NCC(C(=O)N1CCN(c2ncnc3c2C(C)CC3O)CC1)c1ccc(Cl)cc1
< 9.49 nM

* * *

System: LG0567-F671-PDC multi-cell spheroid viability
Test: Anticancer human tumor LG0567-F671-PDC cell line growth inhibition [IpAb];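 note: viability read after 7 days of drug exposure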;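 for viability, T/C: 100% = DMSO vehicle control luminescence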
Settings: second compound 3.16 µM; first compound 3.16 µM; stronger effect = lower value
propertyMeasured: viability, T/C (%)
Quick reminder: number only, in %, skip the unit.

[
  {
    "compound": "Cn1ncc(Cl)c1-c1cc(C(=O)NC(CN)Cc2cccc(F)c2)sc1Cl (centres undefined) + CC(C)NCC(C(=O)N1CCN(c2ncnc3c2C(C)CC3O)CC1)c1ccc(Cl)cc1",
    "viability, T/C, %": 57
  },
  {
    "compound": "CCCS(=O)(=O)Nc1ccc(F)c(C(=O)c2c[nH]c3ncc(-c4ccc(Cl)cc4)cc23)c1F + CC(C)NCC(C(=O)N1CCN(c2ncnc3c2C(C)CC3O)CC1)c1ccc(Cl)cc1",
    "viability, T/C, %": 82.9
  },
  {
    "compound": "Cc1nc(NC(=O)N2CCCC2C(N)=O)sc1-c1ccnc(C(C)(C)C(F)(F)F)c1 (centres undefined) + CC(C)NCC(C(=O)N1CCN(c2ncnc3c2C(C)CC3O)CC1)c1ccc(Cl)cc1",
    "viability, T/C, %": 41.1
  }
]

Sample CC1(C)CCC(CN2CCN(c3ccc(C(=O)NS(=O)(=O)c4ccc(NCC5CCOCC5)c([N+](=O)[O-])c4)c(Oc4cnc5[nH]ccc5c4)c3)CC2)=C(c2ccc(Cl)cc2)C1 + CC(C)NCC(C(=O)N1CCN(c2ncnc3c2C(C)CC3O)CC1)c1ccc(Cl)cc1 — what was its viability, T/C?
72.7
